- measurementTarget: T1, human Aβ peptide (1-40) biotinylated at the C terminus (human, UniProt P05067 672-711, biotinylated at the C-terminus)
- T1 construct: domain: β-amyloid peptide (1-40); Numbers 1-40 count on the β-amyloid peptide, not on APP; also called beta-amyloid 1-40 peptide (biotinylated at the C-terminus); streptavidin-captured beta-amyloid (1-40)
- T1 sequence (P05067 672-711 limits assumed): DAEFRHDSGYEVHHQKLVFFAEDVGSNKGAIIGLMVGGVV
- assayProcedure: Aβ binding ELISA, human Aβ (1-40) biotinylated at the C terminus
measure: EC50

In: Requested field: EC50. Item: Humanised 2E7 variant H3L1 (antibody, human IgG1, kappa, V domains shown, Human IgG1 with L235A and G237A, human kappa; also called L1+H3) VH: EVQLVESGGGLVQPGGSLRLSCAASGFTFSDNGMAWVRQAPGKGLEWISFISNLAYSIDYADTVTGRFTISRDNAKNSLYLQMNSLRAEDTAVYYCVSGTWFAYWGQGTLVTVSS VL: DIVMTQSPLSLPVTPGEPASISCRVSQSLLHSNGYTYLHWYLQKPGQSPQLLIYKVSNRFSGVPDRFSGSGSGTDFTLKISRVEAEDVGVYYCSQTRHVPYTFGGGTKVEIKR
Out: 0.044 µg/mL

In: Check Chimeric 2E7 antibody (2E7c) (antibody, human IgG1, V domains shown, Parent murine V regions on human IgG1 (L235A, G237A) and human C kappa; also called 2E7c Chimera; not shown: human IgG1 heavy chain constant region, Fc mutated (L235A, G237A); human C kappa constant region) VH: EVKLVESGGGLVQPGGSLKLSCAVSGFTFSDNGMAWVRQAPRKGPEWIAFISNLAYSIDYADTVTGRFTISRDNAKNTLYLEMSSLRSEDTAMYYCVSGTWFAYWGQGTLVTVSA VL: DVVLTQTPLSLPVSLGDQASISCRVSQSLLHSNGYTYLHWYLQKPGQSPKLLIYKVSNRFSGVPDRFSGSGSGTDFTLKISRVEAEDLGVYFCSQTRHVPYTFGGGTKLEIK too.
Out: 0.033 µg/mL

In: # iterate: Humanised 2E7 variant H1L1 (antibody, human IgG1, kappa, V domains shown, Human IgG1 with L235A and G237A, human kappa; also called L1+H1) VH: EVQLVESGGGLVQPGGSLRLSCAASGFTFSDNGMAWVRQAPGKGLEWVSFISNLAYSIDYADTVTGRFTISRDNAKNSLYLQMNSLRAEDTAVYYCVSGTWFAYWGQGTLVTVSS VL: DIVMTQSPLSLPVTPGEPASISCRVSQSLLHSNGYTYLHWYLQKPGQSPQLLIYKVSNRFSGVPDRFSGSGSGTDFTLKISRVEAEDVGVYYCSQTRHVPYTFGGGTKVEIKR
Out: 0.035 µg/mL

In: Also Humanised 2E7 variant H2L1 (antibody, human IgG1, kappa, V domains shown, Human IgG1 with L235A and G237A, human kappa; also called L1+H2; H2L1 whole IgG) VH: EVQLVESGGGLVQPGGSLRLSCAVSGFTFSDNGMAWVRQAPGKGLEWVSFISNLAYSIDYADTVTGRFTISRDNAKNSLYLQMNSLRAEDTAVYYCVSGTWFAYWGQGTLVTVSS VL: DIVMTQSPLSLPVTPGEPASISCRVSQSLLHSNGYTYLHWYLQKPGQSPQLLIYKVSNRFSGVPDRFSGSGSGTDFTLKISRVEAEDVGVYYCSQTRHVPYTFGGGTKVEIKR , if possible.
Out: 0.048 µg/mL
